Tested on: Bacillus cereus
assay_name: Antimicrobial activity against Bacillus cereus ATCC 11778 at 100 ug/ml after 24 hr by paper disk diffusion method
Format: functional
run_conditions: ATCC 11778, 24 h, read-out: IZ
parameter: zone of inhibition at 100 µg/mL (mm)

>  <smiles_text>
CN(C)c1ccc(/C=N/c2ccc(/N=C3\C(=O)N(Cc4ccccc4)c4ccccc43)cc2)cc1

>  <system_tested>
Bacillus cereus

>  <recorded_number>
15

$$$$
>  <smiles_text>
O=C1/C(=N\c2ccc(/N=C/c3ccc(Br)cc3)cc2)c2ccccc2N1Cc1ccccc1

>  <system_tested>
Bacillus cereus

>  <recorded_number>
17

$$$$
>  <smiles_text>
COc1ccc(/C=N/c2ccc(/N=C3\C(=O)N(Cc4ccccc4)c4ccccc43)cc2)cc1

>  <system_tested>
Bacillus cereus

>  <recorded_number>
17

$$$$
>  <smiles_text>
O=C1/C(=N\c2ccc(/N=C/c3ccc(Cl)cc3)cc2)c2ccccc2N1Cc1ccccc1

>  <system_tested>
Bacillus cereus

>  <recorded_number>
19

$$$$
>  <smiles_text>
O=C1/C(=N\c2ccc(/N=C/c3ccccc3O)cc2)c2ccccc2N1Cc1ccccc1

>  <system_tested>
Bacillus cereus

>  <recorded_number>
18

$$$$

* * *

Test system: Mycobacterium tuberculosis
assay_name: Antimicrobial activity against Mycobacterium tuberculosis H37Rv ATCC 27294 after 7 days by MABA
Format: functional
run_conditions: Mycobacterium tuberculosis, H37Rv ATCC 27294, 168 h

>  <smiles_text>
CO[C@H]1/C=C/O[C@@]2(C)Oc3c(C)c(O)c4c(O)c(c(/C=N/N5CCN(C)CC5)c(O)c4c3C2=O)NC(=O)/C(C)=C\C=C\[C@H](C)[C@H](O)[C@@H](C)[C@@H](O)[C@@H](C)[C@H](OC(C)=O)[C@@H]1C

>  <system_tested>
Mycobacterium tuberculosis

>  <MIC90>
0.06 µM

$$$$
>  <smiles_text>
O=C1/C(=N\c2ccc(/N=C/c3ccc(Br)cc3)cc2)c2ccccc2N1Cc1ccccc1

>  <system_tested>
Mycobacterium tuberculosis

>  <MIC90>
4.26 µM

$$$$
>  <smiles_text>
O=[N+]([O-])c1cn2c(n1)OC[C@@H](OCc1ccc(OC(F)(F)F)cc1)C2

>  <system_tested>
Mycobacterium tuberculosis

>  <MIC90>
0.25 µM

$$$$
>  <smiles_text>
NNC(=O)c1ccncc1

>  <system_tested>
Mycobacterium tuberculosis

>  <MIC90>
0.74 µM

$$$$
>  <smiles_text>
COc1c(N2C[C@@H]3CCCN[C@@H]3C2)c(F)cc2c(=O)c(C(=O)O)cn(C3CC3)c12

>  <system_tested>
Mycobacterium tuberculosis

>  <MIC90>
0.25 µM

$$$$

* * *

Test system: Mycobacterium tuberculosis
assay_name: Antimicrobial activity against Mycobacterium tuberculosis H37Rv ATCC 27294 after 7 days by MABA
Assay type: functional
parameter: inhibition (INH) (%)

>  <smiles_text>
COc1ccc(/C=N/c2ccc(/N=C3\C(=O)N(Cc4ccccc4)c4ccccc43)cc2)cc1

>  <recorded_number>
80

$$$$
>  <smiles_text>
O=C1/C(=N\c2ccc(/N=C/c3ccccc3O)cc2)c2ccccc2N1Cc1ccccc1

>  <recorded_number>
90

$$$$
>  <smiles_text>
CO[C@H]1/C=C/O[C@@]2(C)Oc3c(C)c(O)c4c(O)c(c(/C=N/N5CCN(C)CC5)c(O)c4c3C2=O)NC(=O)/C(C)=C\C=C\[C@H](C)[C@H](O)[C@@H](C)[C@@H](O)[C@@H](C)[C@H](OC(C)=O)[C@@H]1C

>  <recorded_number>
100

$$$$
>  <smiles_text>
NNC(=O)c1ccncc1

>  <recorded_number>
100

$$$$
